Hi there, I'd appreciate the recorded apparent KD of MS2 coat protein for every entry that follows.
# Tested on: MS2 coat protein
# RUN_DESCRIPTION: apparent KD of MS2 coat protein; designed switch direction (-1 OFF switch, 1 ON switch): 1; higher = weaker reporter binding
# CONDITION_LABEL: Eterna round: R95; input ligand: FMN 200 uM
For clarity, give the value followed by its unit.

Record excerpt, results attached:
AGGGAGGAGGCUGAGGAUAUCGUAAGGAGGACAUGAGGAUCACCCAUGUGUAUAGGAUUGGAGGACGAGAAGGCAGAGGAGUGGG [JR_SS2_Sub050] (puzzle: Same State 2) ... 41.1 nM
ACUUGCUUUUUGCUCAUCUUAUGUCCGAAACAUGAGGAUCACCCAUGUGUAGAUUAUGUGUUGUUUUUGAUACGUGA [JR_SHM208A_Sub066] (puzzle: Sensor for hsa-mir-208a) ... 24.9 nM

Please find the next sequence below.
Recorded apparent KD of MS2 coat protein of AAAAGACAUGAGGAUCACCCAUGUAUGAAAAGUACAGGAUAUCACGAGCUAAGAAGCGAGUGAGAAGGGUGAAAAU [Sogedi] (puzzle: Same State 1) , please.
519 nM
